Catalogue of EC50 values
Test: cells
Type: functional, cell-based
Calls of active or inactive are those of the source.
Assay endpoint: EC50

Smiles repr | Assay endpoint | Observed result
COc1cccc(/C=N/NC(=O)c2[nH]nc3c2CCc2ccccc2-3)c1O | EC50 | 9.85 µM (active)
Cc1ccc(Nc2c(-c3ccccn3)nc3cccc(C)n23)cc1 | EC50 | 12.7 µM (active)
COC(=O)C1=C(C)N(Cc2ccc(OC)cc2)C(=O)C1 | EC50 | > 350 µM (not active)
O=C(CSc1nnc(-c2ccccc2Cl)o1)N1CCOCC1 | EC50 | > 350 µM (not active)
COc1cccc(C(=O)SC2=NCCS2)c1 | EC50 | > 350 µM (not active)

---

Catalogue of AC50 values
Target: Cytochrome P450 2C9 (Homo sapiens)
Sequence (P11712 whole entry): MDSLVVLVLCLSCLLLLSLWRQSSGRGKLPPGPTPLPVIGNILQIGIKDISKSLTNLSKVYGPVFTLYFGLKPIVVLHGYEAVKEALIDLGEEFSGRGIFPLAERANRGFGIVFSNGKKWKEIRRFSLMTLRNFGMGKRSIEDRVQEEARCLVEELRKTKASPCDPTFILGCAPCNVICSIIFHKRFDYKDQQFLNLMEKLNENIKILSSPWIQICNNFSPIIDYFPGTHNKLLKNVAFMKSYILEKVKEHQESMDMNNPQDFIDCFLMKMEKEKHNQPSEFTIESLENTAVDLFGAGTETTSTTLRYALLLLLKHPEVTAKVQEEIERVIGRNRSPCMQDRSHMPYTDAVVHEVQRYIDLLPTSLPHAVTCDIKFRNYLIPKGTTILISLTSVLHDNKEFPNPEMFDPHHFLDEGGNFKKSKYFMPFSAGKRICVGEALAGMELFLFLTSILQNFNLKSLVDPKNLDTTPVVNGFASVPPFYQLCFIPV

Compound | Experimental system | AC50
NS(=O)(=O)c1ccc(CCNC(=O)C2CCCN2C(=O)OCc2ccccc2)cc1 (centres undefined) | Cytochrome P450 2C9 (Homo sapiens) | 15.8 µM (inconclusive)
CS(=O)(=O)N(Cc1cc2ccccc2nc1O)C1CCCCC1 | Cytochrome P450 2C9 (Homo sapiens) | 39.8 µM (inconclusive)
CC(=O)OCC(=O)[C@]12OC(C)(C)O[C@@H]1C[C@H]1[C@H]3CC=C4C[C@@H](O)CC[C@]4(C)[C@H]3CC[C@]12C | Cytochrome P450 2C9 (Homo sapiens) | 7.94 µM (inconclusive)
Cc1ccc(NC(=O)CCC(=O)NNC(=O)c2ccco2)cc1C | Cytochrome P450 2C9 (Homo sapiens) | 12.6 µM (inconclusive)
CCN1CCc2c(sc(NC(=O)c3ccc(S(=O)(=O)N4CCOCC4)cc3)c2C(=O)OC)C1.Cl | Cytochrome P450 2C9 (Homo sapiens) | 5.01 µM (inconclusive)
FC(F)(F)c1cc(Sc2ccccc2)nc(-c2ccccn2)n1 | Cytochrome P450 2C9 (Homo sapiens) | 14.1 µM (inconclusive)
CC(C)[C@H](CO)Nc1nc(Nc2cccc(Cl)c2)c2ncn(C(C)C)c2n1 [PURVALANOLA] | Cytochrome P450 2C9 (Homo sapiens) | 39.8 µM (inconclusive)
C=C(C)COc1ccc(-c2[nH]nc(C)c2-c2ccc(OC)cc2)c(O)c1 | Cytochrome P450 2C9 (Homo sapiens) | 25.1 µM (inconclusive)
CC(=O)Nc1nonc1NC(=O)c1ccc(C(C)(C)C)cc1 | Cytochrome P450 2C9 (Homo sapiens) | 3.55 µM (inconclusive)

---

Target: Luciferin 4-monooxygenase (Photinus pyralis)
Sequence (P08659 whole entry): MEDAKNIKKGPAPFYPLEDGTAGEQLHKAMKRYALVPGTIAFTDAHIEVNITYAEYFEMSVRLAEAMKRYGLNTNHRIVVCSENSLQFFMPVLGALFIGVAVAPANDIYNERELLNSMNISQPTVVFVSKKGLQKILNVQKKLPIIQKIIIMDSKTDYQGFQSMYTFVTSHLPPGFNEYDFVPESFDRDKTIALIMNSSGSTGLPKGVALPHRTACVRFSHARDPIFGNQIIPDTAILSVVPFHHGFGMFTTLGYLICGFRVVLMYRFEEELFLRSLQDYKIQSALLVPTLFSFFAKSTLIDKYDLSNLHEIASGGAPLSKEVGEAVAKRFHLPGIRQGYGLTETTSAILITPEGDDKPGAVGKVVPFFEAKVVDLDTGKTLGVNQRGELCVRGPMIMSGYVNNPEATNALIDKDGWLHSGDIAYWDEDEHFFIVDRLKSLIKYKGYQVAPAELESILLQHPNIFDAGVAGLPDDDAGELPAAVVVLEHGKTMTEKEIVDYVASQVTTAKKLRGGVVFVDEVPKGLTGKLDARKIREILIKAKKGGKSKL
Assay: inhibition of purified Photinus pyralis luciferase – biochemical, luminescence, dose response (AID 1891)
Active and inactive are the calls of the source.
Catalogue of EC50 values

Compound | EC50
Nc1ccc(-c2nc3ccc(N)cc3s2)cc1 | 8.6 µM (active)
Cc1onc(-c2ccccc2)c1C(=O)N=C(N)c1ccc(Cl)cc1 | > 112 µM (not active)
COC(=O)c1cc(NC2c3ccccc3C(=O)N2c2cccnc2)cc(C(=O)OC)c1 (configuration not stated) | > 112 µM (not active)
CCOc1ccc2nc(NC(=O)c3ccc(C)o3)sc2c1 | 0.562 µM (active)
Cc1cc(C)n2nc(SCc3cc(=O)oc4cc(C)c(C)cc34)nc2n1 | > 112 µM (not active)
Cc1occc1C(=O)N/N=C/c1ccc2c(c1)OCO2 | 1.4 µM (active)
O=S(=O)(CCc1ccccc1)/N=C/c1cccs1 | > 112 µM (not active)
Cc1ccc(C(=O)NCCn2cc(SCC(=O)Nc3nnc(C)s3)c3ccccc32)cc1 | > 112 µM (not active)
CC(C)(CO)NCC(O)COc1ccc2c(c1)CCC2 (configuration not stated) | > 112 µM (not active)
CCc1ccc(S(=O)(=O)N/N=C\c2ccc([N+](=O)[O-])o2)cc1 | > 112 µM (not active)
COC(=O)C1CSC(C(=O)OC)N1C(=O)Nc1ccccc1 (configuration not stated) | > 112 µM (not active)
CCC(=O)N1c2ccc(S(=O)(=O)CCC(=O)N3CCN(c4ccccc4F)CC3)cc2CC1C (configuration not stated) | > 112 µM (not active)
